Molecular target: MARK4 (Homo sapiens)
Construct: purchased MRC PPU
Sequence (Q96L34 1-752): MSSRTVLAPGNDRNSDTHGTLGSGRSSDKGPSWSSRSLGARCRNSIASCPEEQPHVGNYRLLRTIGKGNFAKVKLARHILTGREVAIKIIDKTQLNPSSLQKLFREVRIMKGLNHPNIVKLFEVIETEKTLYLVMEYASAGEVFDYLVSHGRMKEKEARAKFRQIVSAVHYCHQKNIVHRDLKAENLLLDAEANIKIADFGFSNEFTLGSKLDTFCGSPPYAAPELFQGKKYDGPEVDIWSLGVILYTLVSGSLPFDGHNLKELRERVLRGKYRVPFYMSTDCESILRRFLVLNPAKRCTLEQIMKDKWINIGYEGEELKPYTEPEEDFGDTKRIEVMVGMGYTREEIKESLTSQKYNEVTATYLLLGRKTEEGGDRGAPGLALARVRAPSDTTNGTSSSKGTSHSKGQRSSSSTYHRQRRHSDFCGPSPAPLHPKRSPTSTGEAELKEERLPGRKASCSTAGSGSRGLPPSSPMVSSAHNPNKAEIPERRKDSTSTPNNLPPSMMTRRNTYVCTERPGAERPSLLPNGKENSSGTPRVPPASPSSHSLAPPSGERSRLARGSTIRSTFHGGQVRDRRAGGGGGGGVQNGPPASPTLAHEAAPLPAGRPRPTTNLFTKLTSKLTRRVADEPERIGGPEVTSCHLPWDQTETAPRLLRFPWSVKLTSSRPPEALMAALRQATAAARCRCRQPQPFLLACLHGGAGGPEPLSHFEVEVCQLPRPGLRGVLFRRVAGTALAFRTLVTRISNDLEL
Assay: ADP-Glo biochemical assay MARK4
Conditions: MARK4 IC50/NUAK1 IC50
I'd appreciate it if you marked entries label 1 when MARK4 Fold selectivity IC50/NUAK1 IC50 is lower than 2000 fold and label 0 when it is not.

Is it true that MARK4 Fold selectivity IC50/NUAK1 IC50 reported for CC(C)N1CCN(c2ccc(Nc3ncc4ccn(CC5CCOC(C)(C)C5)c4n3)cc2)CC1 (stereo not shown) is less than 2000 fold? label 0

API: query returns whether the compound falls strictly under 2000 fold in MARK4 Fold selectivity IC50/NUAK1 IC50. Query: CC(C)N1CCN(c2ccc(Nc3ncc4ccn(CC5CCOCC5)c4n3)cc2)CC1 label 0

For CN1C2CC1CN(c1ccc(Nc3ncc4ccn(CC5CCCO5)c4n3)cc1)C2 (stereo not shown) , is the recorded MARK4 Fold selectivity IC50/NUAK1 IC50 below the cut-off of 2000 fold? label 1

Report whether reported MARK4 Fold selectivity IC50/NUAK1 IC50 is lower than 2000 fold (strictly) for CN1C2CC1CN(c1ccc(Nc3ncc4ccn(CC5CCOCC5)c4n3)cc1)C2 label 0

In the record for Cc1cc(=O)n(C2CCCC2)c2nc(Nc3ccc(N4CCN(C)CC4)cc3)ncc12 , is MARK4 Fold selectivity IC50/NUAK1 IC50 less than 2000 fold? label 1

# TODO verify MARK4 Fold selectivity IC50/NUAK1 IC50 < 2000 fold strictly for this compound: CC(C)N1CCN(c2ccc(Nc3ncc4ccn(C5CCCC5)c4n3)cc2)CC1 label 1

Does the reported MARK4 Fold selectivity IC50/NUAK1 IC50 of the following compound sit strictly below 2000 fold? CC(C)N1CCN(c2ccc(Nc3ncc4ccn(CC5CCCO5)c4n3)cc2)CC1 (stereo not shown) label 1

Please state whether MARK4 Fold selectivity IC50/NUAK1 IC50 is below 2000 fold for CN1CCN(c2ccc(Nc3ncc4cc(C#N)c(=O)n(C5CCCC5)c4n3)cc2)CC1 [Compound 3, Narazaciclib, reference compound] label 1

Take the compound CC(C)N1CCN(c2ccc(Nc3ncc4c(n3)N(C3CCCC3)C(=O)C4)cc2)CC1 and say whether its MARK4 Fold selectivity IC50/NUAK1 IC50 is less than 2000 fold. label 1

---

Assignment: determine reported NUAK2 pIC50 for the given molecules.
Target: NUAK2 (Homo sapiens)
Construct: purchased MRC PPU
Sequence (Q9H093 1-628): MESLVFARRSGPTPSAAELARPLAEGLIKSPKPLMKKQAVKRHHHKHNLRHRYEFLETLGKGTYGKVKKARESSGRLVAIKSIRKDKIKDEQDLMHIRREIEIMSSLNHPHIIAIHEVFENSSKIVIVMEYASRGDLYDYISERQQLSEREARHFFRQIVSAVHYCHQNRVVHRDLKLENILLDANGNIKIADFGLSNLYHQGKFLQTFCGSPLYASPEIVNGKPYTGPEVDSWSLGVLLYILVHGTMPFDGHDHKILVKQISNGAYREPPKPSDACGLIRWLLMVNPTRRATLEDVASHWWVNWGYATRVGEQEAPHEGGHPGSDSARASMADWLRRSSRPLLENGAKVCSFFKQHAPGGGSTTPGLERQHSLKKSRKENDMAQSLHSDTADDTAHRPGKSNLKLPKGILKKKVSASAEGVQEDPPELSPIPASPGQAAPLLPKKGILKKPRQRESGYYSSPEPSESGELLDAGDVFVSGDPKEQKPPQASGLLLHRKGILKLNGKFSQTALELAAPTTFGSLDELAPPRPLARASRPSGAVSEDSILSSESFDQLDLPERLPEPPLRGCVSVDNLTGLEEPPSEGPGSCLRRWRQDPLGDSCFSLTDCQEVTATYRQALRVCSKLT
Test: ADP-Glo biochemical assay NUAK2
Settings: ADP-Glo assay
Returns: the value as a bare number; no unit string appended.

// query NUAK2 pIC50 value for entry Cc1cc(=O)n(C(C)C)c2nc(Nc3ccc(N4CC5CC(C4)N5C)cc3)ncc12 7.2

Returns the measured NUAK2 pIC50 for the input molecule. Input: CN1CCN(c2ccc(Nc3ncc4cc(C#N)c(=O)n(C5CCCC5)c4n3)cc2)CC1 [Compound 3, Narazaciclib, reference compound] 8.3

So what does the record say about NUAK2 pIC50 for Cc1cc(=O)n(C2CCCC2)c2nc(Nc3ccc(N4CCN(C)CC4)cc3)ncc12 ? 7.6

Item under review: CN1C2CC1CN(c1ccc(Nc3ncc4ccn(CC5CCOCC5)c4n3)cc1)C2 . Reported NUAK2 pIC50? 7.6

Fill in the blank: the reported NUAK2 pIC50 of CC(C)N1CCN(c2ccc(Nc3ncc4c(n3)N(C3CCCC3)C(=O)C4)cc2)CC1 is ____. 6.9

Look up NUAK2 pIC50 for this molecule: CC(C)N1CCN(c2ccc(Nc3ncc4ccn(C5CCCC5)c4n3)cc2)CC1 7.4

Using the record for Cc1cc(=O)n(C2CCCC2)c2nc(Nc3ccc(N4CC5CC(C4)N5C)cc3)ncc12 , report its NUAK2 pIC50. 7.8

---

target: NUAK1 (Homo sapiens, UniProt O60285); test: ADP-Glo biochemical assay NUAK1; parameters: purchased MRC PPU; details: ADP-Glo assay; read-out: NUAK1 pIC50 (converted)
Sequence (O60285 whole entry): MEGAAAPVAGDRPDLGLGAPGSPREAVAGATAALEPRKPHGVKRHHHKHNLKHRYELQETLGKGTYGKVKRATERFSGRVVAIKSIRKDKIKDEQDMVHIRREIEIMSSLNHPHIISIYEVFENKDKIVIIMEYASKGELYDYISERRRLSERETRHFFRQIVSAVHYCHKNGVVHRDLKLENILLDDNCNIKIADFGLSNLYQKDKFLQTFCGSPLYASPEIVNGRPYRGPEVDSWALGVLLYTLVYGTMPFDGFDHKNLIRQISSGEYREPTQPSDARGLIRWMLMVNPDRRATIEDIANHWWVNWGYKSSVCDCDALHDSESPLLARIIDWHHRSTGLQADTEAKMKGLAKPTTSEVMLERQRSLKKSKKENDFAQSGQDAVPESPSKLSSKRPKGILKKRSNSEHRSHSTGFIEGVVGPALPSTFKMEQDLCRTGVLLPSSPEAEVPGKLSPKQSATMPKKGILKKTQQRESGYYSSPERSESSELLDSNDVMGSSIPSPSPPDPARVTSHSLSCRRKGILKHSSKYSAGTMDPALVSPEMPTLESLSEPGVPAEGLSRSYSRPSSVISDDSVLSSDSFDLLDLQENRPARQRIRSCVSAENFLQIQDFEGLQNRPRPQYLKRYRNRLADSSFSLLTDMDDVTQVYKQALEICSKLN
MEASUREMENT_NAME: IC50 (nM)
# unit: nM | format: bare number

// IC50 lookup, key: CC(=O)c1c(C)c2cnc(Nc3ccc(N4CCNCC4)cn3)nc2n(C2CCCC2)c1=O [Compound 14, Palbociclib, reference compound] 20000

What does the record list as IC50 for CC(C)N1CCN(c2ccc(Nc3ncc4ccn(CC5CCOC(C)(C)C5)c4n3)cc2)CC1 (centres unmarked) [Compound 26] ? 2.75

Bench note: what IC50 did Cc1cc(=O)n(C2CCCC2)c2nc(Nc3ccc(N4CCNCC4)cn3)ncc12 [Compound 13] show? 316

Quick check: IC50 of CN1C2CC1CN(c1ccc(Nc3ncc4ccn(C5CCOC5)c4n3)cc1)C2 (centres unmarked) [Compound 30] ? 15.8

Using the record for CC(C)N1CCN(c2ccc(Nc3ncc4ccn(C5CCCC5)c4n3)cc2)CC1 [Compound 8] , report its IC50. 4.57

Please give the measured IC50 for this compound: CC(C)N1CCN(c2ccc(Nc3ncc4ccn(CC5CCCO5)c4n3)cc2)CC1 (centres unmarked) [Compound 27] 3.39

Which IC50 value belongs to CN1C2CC1CN(c1ccc(Nc3ncc4cc(C#N)c(=O)n(C5CCCC5)c4n3)cc1)C2 [Compound 10] ? 14.8

Consider the compound CN1CCN(c2cccc(Nc3ncc4cc(C#N)c(=O)n(C5CCCC5)c4n3)c2)CC1 [Compound 11] and give its measured IC50. 13.8

---

system: MDR1 (P-gp); assay: MDR1-MDCK permeability (bi-directional); type: in vitro ADME, canine; details: dog, MDCK-MDR1; ratio of B-A to A-B permeabilities; read-out: MDCK ER (efflux ratio)
MEASUREMENT_NAME: efflux ratio at 1 h, 10 µM

For MDR1 (P-gp), provide efflux ratio at 1 h, 10 µM of CN1C2CC1CN(c1ccc(Nc3ncc4cc(C#N)c(=O)n(C5CCCC5)c4n3)cc1)C2 please. 50

API: value(readout=efflux ratio at 1 h, 10 µM, system=MDR1 (P-gp)) for record CN1C2CC1CN(c1ccc(Nc3ncc4ccn(CC5CCOCC5)c4n3)cc1)C2 71

Quick check: efflux ratio at 1 h, 10 µM on MDR1 (P-gp), item CN1CCN(c2ccc(Nc3ncc4cc(C#N)c(=O)n(C5CCCC5)c4n3)cc2)CC1 [Compound 3, Narazaciclib, reference compound] ? 5.6

Item: Cc1cc(=O)n(C2CCCC2)c2nc(Nc3ccc(N4CC5CC(C4)N5C)cc3)ncc12 Test system: MDR1 (P-gp) Read-out: efflux ratio at 1 h, 10 µM Value: ? 4.8
